Cited source for all entries: ChEMBL document CHEMBL5518164

assay_protocol: Drug hydrolysis in phosphate buffer saline incubated for 600 hrs at pH 7.3 by RP18-HPLC analysis
Assay type: physicochemical
stated_conditions: read-out: Drug degradation
measurement_type: degraded at 600 h (%)
Kindly provide the numeric value in % only, without the unit symbol.

{"compound": "CCCCCCCCCCCCCCCCCCP(=O)(OCCCC)OP(=O)(O)OP(=O)(O)CO[C@H](C)Cn1cnc2c(N)ncnc21 (some centres not stated)", "recorded_measurement": 45}

The record that follows has no degraded at 600 h shown yet.
Request the reported degraded at 600 h associated with CCCCCCCCCCCCCCCCCCP(=O)(OCCCCCCCC)OP(=O)(O)OP(=O)(O)CO[C@H](C)Cn1cnc2c(N)ncnc21 (some centres not stated)
43

###

CC50 values by entry
assay_protocol: Cytotoxicity against human CEM cells assessed as inhibition of cell proliferation
Assay type: toxicity, cell-based, CCRF-CEM
Provide the reading as a plain figure in µM.

{"compound": "CCCCCCCCCCCCCCCCCCOP(=O)(OCc1ccc(OC(=O)CC)cc1)OP(=O)(O)OP(=O)(O)CO[C@H](C)Cn1cnc2c(N)ncnc21 (some centres not stated)", "unit_of_measure": "µM", "CC50": 51.1}
{"compound": "CCCCCCCCCCCCCCCCCCOP(=O)(OCc1ccc(OC(=O)CCCC)cc1)OP(=O)(O)OP(=O)(O)CO[C@H](C)Cn1cnc2c(N)ncnc21 (some centres not stated)", "unit_of_measure": "µM", "CC50": 57.2}
{"compound": "CCCCCCCCCCCCCCCCCCOP(=O)(OCCCC)OP(=O)(O)OP(=O)(O)CO[C@H](C)Cn1cnc2c(N)ncnc21 (some centres not stated)", "unit_of_measure": "µM", "CC50": 44.3}
{"compound": "CCCCCCCCCCCCCCCCCCP(=O)(OCCCCCCCC)OP(=O)(O)OP(=O)(O)CO[C@H](C)Cn1cnc2c(N)ncnc21 (some centres not stated)", "unit_of_measure": "µM", "CC50": 48.5}
{"compound": "CCCCCCCCC(=O)Oc1ccc(COOP(=O)(O)OP(=O)(O)OP(=O)(O)CO[C@H](C)Cn2cnc3c(N)ncnc32)cc1", "unit_of_measure": "µM", "CC50": 48.9}

// next item, CC50 requested
Any idea what its CC50 is? The compound is CCCCCCCCCCCCOP(=O)(OCCCCCCCCCCCC)OP(=O)(O)OP(=O)(O)CO[C@H](C)Cn1cnc2c(N)ncnc21
44.7

###

assay_protocol: Half life of the compound in citrate-containing human plasma by HPLC analysis
Format: ADME, cell-free
Property: half-life; scope: individual molecules

{"molecule": "CC(C)OC(=O)OCOP(=O)(CO[C@H](C)Cn1cnc2c(N)ncnc21)OCOC(=O)OC(C)C.O=C(O)/C=C/C(=O)O [TENOFOVIR DISOPROXIL FUMARATE]", "half-life": "0.167 h"}
{"molecule": "CCCCCCCCCCCCCCCCCCP(=O)(OCCCC)OP(=O)(O)OP(=O)(O)CO[C@H](C)Cn1cnc2c(N)ncnc21 (stereo not given in full)", "half-life": "> 8 h"}
{"molecule": "CCCCCCCCCCCCCCCCCCP(=O)(OCCCC)OP(=O)(O)CO[C@H](C)Cn1cnc2c(N)ncnc21 (stereo not given in full)", "half-life": "> 5 h"}
{"molecule": "CC(C)OC(=O)[C@H](C)N[P@](=O)(CO[C@H](C)Cn1cnc2c(N)ncnc21)Oc1ccccc1.CC(C)OC(=O)[C@H](C)N[P@](=O)(CO[C@H](C)Cn1cnc2c(N)ncnc21)Oc1ccccc1.O=C(O)/C=C/C(=O)O [TENOFOVIR ALAFENAMIDE FUMARATE]", "half-life": "1.5 h"}

Now, please, on to the next molecule.
# get_value(readout='half-life', item= CCCCCCCCCCCCCCCCCCOP(=O)(OCCCC)OP(=O)(O)OP(=O)(O)CO[C@H](C)Cn1cnc2c(N)ncnc21 (stereo not given in full) )
> 8 h

###

assay_protocol: Half life of the compound in human CEM/0 cell extracts by RP18-HPLC analysis
Type: ADME, CCRF-CEM
measurement_type: half-life (h)
State the answer as a number, implicitly in h.

{"compound": "CCCCCCCCCCCCCCCCCCOP(=O)(OCc1ccc(OC(=O)CCCCCCCC)cc1)OP(=O)(O)OP(=O)(O)CO[C@H](C)Cn1cnc2c(N)ncnc21 (stereo partly specified)", "measurement_type": "half-life", "unit_of_measure": "h", "recorded_measurement": 3.5}
{"compound": "CCCCCCCCCCCCCCCCCCOP(=O)(OCc1ccc(OC(=O)CCCC)cc1)OP(=O)(O)OP(=O)(O)CO[C@H](C)Cn1cnc2c(N)ncnc21 (stereo partly specified)", "measurement_type": "half-life", "unit_of_measure": "h", "recorded_measurement": 2.1}

Next, consider the following compound.
Return reported half-life; argument: CCCCCCCCCCCCCCCCCCP(=O)(OCCCC)OP(=O)(O)CO[C@H](C)Cn1cnc2c(N)ncnc21 (stereo partly specified)
5.1

###

half-life listing for selected compounds.
assay_protocol: Half life of the compound in heparin-stabilized human plasma by HPLC analysis
Format: ADME, cell-free
Supply the numeric figure in h, leaving out any unit text.

Data request, read-out half-life, for CC(C)OC(=O)OCOP(=O)(CO[C@H](C)Cn1cnc2c(N)ncnc21)OCOC(=O)OC(C)C.O=C(O)/C=C/C(=O)O [TENOFOVIR DISOPROXIL FUMARATE]
0.167

# get_value(readout='half-life', item= CC(C)OC(=O)[C@H](C)N[P@](=O)(CO[C@H](C)Cn1cnc2c(N)ncnc21)Oc1ccccc1.CC(C)OC(=O)[C@H](C)N[P@](=O)(CO[C@H](C)Cn1cnc2c(N)ncnc21)Oc1ccccc1.O=C(O)/C=C/C(=O)O [TENOFOVIR ALAFENAMIDE FUMARATE] )
1.5

###

Reported half-life values are given for each entry in this list.
assay_protocol: Half life of the compound in phosphate buffer saline at pH 7.3 by RP18-HPLC analysis
Format: ADME

Worked examples follow.
{"compound": "CCCCCCCCCCCCCCCCCCP(=O)(OCCCC)OP(=O)(O)OP(=O)(O)CO[C@H](C)Cn1cnc2c(N)ncnc21 (some centres undefined)", "measurement_type": "half-life", "recorded_measurement": "> 20.8 days"}
{"compound": "C[C@H](Cn1cnc2c(N)ncnc21)OCP(=O)(O)O [TENOFOVIR ANHYDROUS]", "measurement_type": "half-life", "recorded_measurement": "> 41.7 days"}
{"compound": "CCCCOP(=O)(OCCCC)OP(=O)(O)OP(=O)(O)CO[C@H](C)Cn1cnc2c(N)ncnc21", "measurement_type": "half-life", "recorded_measurement": "> 41.7 days"}

Okay, now this compound:
Fill in the blank: the reported half-life of CCCCCCCCCCCCCCCCCCP(=O)(OCCCCCCCC)OP(=O)(O)OP(=O)(O)CO[C@H](C)Cn1cnc2c(N)ncnc21 (some centres undefined) is ____.
> 20.8 days

###

assay_protocol: Cytotoxicity against human CEM cells assessed as inhibition of cell proliferation
Format: toxicity, cell-based, CCRF-CEM
The molecules listed here are annotated with their CC50.

{"molecule": "CC(C)OC(=O)OCOP(=O)(CO[C@H](C)Cn1cnc2c(N)ncnc21)OCOC(=O)OC(C)C.O=C(O)/C=C/C(=O)O [TENOFOVIR DISOPROXIL FUMARATE]", "CC50": "> 5 µM"}
{"molecule": "CCCCOP(=O)(OCCCC)OP(=O)(O)OP(=O)(O)CO[C@H](C)Cn1cnc2c(N)ncnc21", "CC50": "> 100 µM"}

Now consider the entry below.
Tell me the measured CC50 of CCCCCCCCCCCC(=O)Oc1ccc(COOP(=O)(O)OP(=O)(O)OP(=O)(O)CO[C@H](C)Cn2cnc3c(N)ncnc32)cc1 , please.
> 100 µM

###

assay_protocol: Selectivity index, ratio of CC50 for cytotoxicity against human CEM cells to EC50 for antiviral activity against HIV-2 ROD infected in thymidine kinase deficient human CEM cells
Type: toxicity, cell-based
stated_conditions: read-out: Ratio CC50/EC50
Entries and their selectivity ratio values follow.

{"molecule": "CCCCOP(=O)(OCCCC)OP(=O)(O)OP(=O)(O)CO[C@H](C)Cn1cnc2c(N)ncnc21", "measurement_type": "selectivity ratio", "recorded_measurement": "> 39"}
{"molecule": "CCCCCCCCCCCOP(=O)(O)OP(=O)(O)OP(=O)(O)CO[C@H](C)Cn1cnc2c(N)ncnc21", "measurement_type": "selectivity ratio", "recorded_measurement": "> 21"}
{"molecule": "CC(C)OC(=O)OCOP(=O)(CO[C@H](C)Cn1cnc2c(N)ncnc21)OCOC(=O)OC(C)C.O=C(O)/C=C/C(=O)O [TENOFOVIR DISOPROXIL FUMARATE]", "measurement_type": "selectivity ratio", "recorded_measurement": "> 1430"}
{"molecule": "CCCCCCCCCCCCCCCCCCOP(=O)(OCc1ccc(OC(=O)CCCCCCCC)cc1)OP(=O)(O)OP(=O)(O)CO[C@H](C)Cn1cnc2c(N)ncnc21 (stereo not given in full)", "measurement_type": "selectivity ratio", "recorded_measurement": "> 322"}

# input for lookup
Which selectivity ratio reading was recorded for the molecule CCCCCCCCCCCCCCCCCCOP(=O)(O)OP(=O)(O)OP(=O)(O)CO[C@H](C)Cn1cnc2c(N)ncnc21 ?
> 3700
